Reported melting point values are given for each entry in this list.

[[record]]
compound = "O=c1[nH]nc(-c2cccc(C(F)(F)F)c2)c2ncccc12"
measured_attribute = "melting point"
result = "210 to 215 °C"

[[record]]
compound = "Cc1nc2c(-c3cccc(N4CCN(CCO)CC4)c3)cnn2c(N)c1-c1ccc(F)c(Cl)c1"
measured_attribute = "melting point"
result = "104 to 107 °C"

[[record]]
compound = "CCN(C(=O)C1CC1)c1cccc(-c2ccc3nnc(C)n3n2)c1"
measured_attribute = "melting point"
result = "149 to 151 °C"

[[record]]
compound = "NS(=O)(=O)c1ccc(-c2cnn(CC=C(F)F)c(=O)c2-c2ccc(F)cc2)cc1"
measured_attribute = "melting point"
result = "191 to 194 °C"

[[record]]
compound = "O=C(NCCSCc1ccccc1)c1c(Cl)cccc1Cl"
measured_attribute = "melting point"
result = "96 to 97 °C"


Input line: Looking for the measured melting point of "O=C(O)c1cc(OCCCc2ccccc2)cc(OCCCc2ccccc2)c1" , can you help?
Output line: 107 to 109 °C

Input line: Looking for the measured melting point of "O=[N+]([O-])c1ccc(-c2ccsc2-c2ccc(F)cc2)cc1" , can you help?
Output line: 108 to 110 °C
